system.under.test: Alpha amylase (Homo sapiens)
Sequence (P0DUB6 whole entry): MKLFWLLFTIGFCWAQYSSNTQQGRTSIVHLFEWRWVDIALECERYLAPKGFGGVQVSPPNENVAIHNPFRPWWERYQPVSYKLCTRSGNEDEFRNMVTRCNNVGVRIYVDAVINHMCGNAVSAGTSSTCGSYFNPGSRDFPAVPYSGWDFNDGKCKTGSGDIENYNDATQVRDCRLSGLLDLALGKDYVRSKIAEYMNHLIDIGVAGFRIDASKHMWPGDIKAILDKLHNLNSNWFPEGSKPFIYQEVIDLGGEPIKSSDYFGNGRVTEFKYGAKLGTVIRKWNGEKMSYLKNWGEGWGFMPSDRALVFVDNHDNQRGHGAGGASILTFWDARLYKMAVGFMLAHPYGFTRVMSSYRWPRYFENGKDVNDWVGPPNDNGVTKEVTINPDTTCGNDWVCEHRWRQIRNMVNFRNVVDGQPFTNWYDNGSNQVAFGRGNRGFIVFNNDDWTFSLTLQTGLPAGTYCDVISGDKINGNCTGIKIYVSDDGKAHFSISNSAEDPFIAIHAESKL
protocol.notes: Inhibition of alpha-amylase (unknown origin) using starch as substrate preincubated for 10 mins followed by substrate addition measured after 10 mins by dinitrosalicylic acid reagent-based assay
recorded.metric: IC50 (nM)

COc1ccc(-c2nc3cc(C)c(C)cc3[nH]2)c(F)c1	2780
COc1cc(Br)c(-c2nc3cc(C)c(C)cc3[nH]2)cc1OC	1480
COc1ccc(-c2nc3cc(F)ccc3[nH]2)c(F)c1	1590

(A) Oc1ccc(-c2nc3cc(F)ccc3[nH]2)c(O)c1
(B) COc1cc(-c2nc3cc(Cl)ccc3[nH]2)cc(OC)c1Br
QUERY: Of the two listed items, A and B , which carries the larger IC50 figure? The response must carry the label of the picked entry.
RESULT: A

(A) COc1ccc(-c2nc3cc([N+](=O)[O-])ccc3[nH]2)c(F)c1
(B) COc1cc(-c2nc3cc([N+](=O)[O-])ccc3[nH]2)ccc1OC(C)=O
QUERY: Smaller IC50 value, A vs B ? The response must carry the label of the picked entry.
RESULT: B

Entry source: ChEMBL document CHEMBL4196082
